Read-out record for thrombin (Homo sapiens, UniProt P00734): pIC50
pIC50: −log10 of the molar value.
Outcome measure: pIC50

Observe how each entry below is paired with its result.
Molecule | Outcome measure | Measurement
N=C(N)Nc1ccc(C(=O)Oc2ccc(SCCCCCN3C(=O)CCC3=O)cc2)cc1 [F, methanesulfonate] | pIC50 | 6.57
N=C(N)Nc1ccc(C(=O)Oc2ccc(SCCN3C(=O)c4ccccc4C3=O)cc2)cc1 [H, methanesulfonate] | pIC50 | 6.96
N=C(N)Nc1ccc(C(=O)Oc2ccc(SCCCN3C(=O)CCC3=O)cc2)cc1 [D, methanesulfonate] | pIC50 | 6.38

A = N=C(N)Nc1ccc(C(=O)Oc2ccc(SCCN3C(=O)[C@H]4CCCC[C@H]4C3=O)cc2)cc1 [G]
B = N=C(N)Nc1ccc(C(=O)Oc2ccc(SCCN3C(=O)CCC3=O)cc2)cc1 [B, methanesulfonate]
C = CC1(C)OC(=O)N(CCSc2ccc(OC(=O)c3ccc(NC(=N)N)cc3)cc2)C1=O [I, methanesulfonate]
Please put the entries in order of rising pIC50. Quick reminder: the answer is the labels in the order asked.
B, C, A

A = N=C(N)Nc1ccc(C(=O)Oc2ccc(SCCCCN3C(=O)CCC3=O)cc2)cc1 [E, methanesulfonate]
B = CCOCCSc1ccc(OC(=O)c2ccc(NC(=N)N)cc2)cc1 [C, methanesulfonate]
Could you tell me which of A and B has the lower pIC50 reading? Answer = label.
A
(A: 6.24, B: 6.46)
